Origin of the recorded values: PubChem BioAssay

Assay: modulators of HCV replicon luciferase signal, primary screen, HCV replication inhibitor project, Huh7 cells, luciferase reporter (AID 1109);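 note: huh7 hepatoma cells harbouring a luciferase neomycin HCV replicon reporter; luciferase luminescence as measure of HCV replicon replication; test concentration not given here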
Settings: 48 h, higher = more signal
metric: z-score
Just the number, please, no unit after it.

Q) Look at this compound and give its reported z-score. C=CCC(OC(C)=O)[C@@H]1[C@@H](N(Cc2cc3ccccc3o2)C(=O)c2ccc(C)cc2)c2cc(OCCCO)ccc2N1C(=O)c1ccc2ccccc2c1 (some centres undefined)
A) -0.274

Q) Look at this compound and give its reported z-score. CC(C)c1ccc(NN2C(C(O)c3cccc(O)c3)C=CC3C(=O)N(c4ccccc4)C(=O)C32)cc1 (centres undefined)
A) 0.141

Q) Look at this compound and give its reported z-score. [N-]=[N+]=NCc1ccccc1[C@@H]1OC(c2ccc(OCCCO)cc2)=N[C@]1(Cc1ccccc1)C(=O)N1CCCCC1
A) -2.79

Q) Look at this compound and give its reported z-score. COc1c(C)cc(-c2cc3c(c(-c4ccc(Oc5ccccc5)cc4)n2)[Si](C(C)C)(C(C)C)OC3)cc1C
A) -0.382

* * *

Test system: Inhibin beta A chain (activin A)
Assay: INHBA (activin A) binders on microarrays, primary screen, biochemical, small-molecule microarray, 635 nm fluorescence scan (AID 1107);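 note: mouse activin A protein probed at 4.33 µg/mL on printed slides; score merges bound-protein fluorescence near 667 nm with spot signal-to-noise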
Details: small-molecule microarray binding, higher = more signal
Returns fulfilled if the recorded composite z-score is greater than or equal to 0.5, and not fulfilled otherwise.

Q) Threshold query (composite z-score >= 0.5) on O=C1O[C@@H](c2ccccc2)[C@@H](c2ccccc2)N2[C@@H](c3ccc(O)cc3)[C@]3(C(=O)Nc4ccc(C#CC5(O)CCCCCC5)cc43)[C@@H](C(=O)N3CCCCCCC3)[C@H]12
A) fulfilled

Q) Threshold query (composite z-score >= 0.5) on COC(=O)[C@@]1(Cc2ccccc2)[C@H]2c3cc(C(=O)N4CCCC4)n(C)c3C[C@H]2CN1C(=O)c1ccccc1
A) fulfilled

Q) Threshold query (composite z-score >= 0.5) on Cc1ccc(S[C@]2(C(=O)NC3CC3)CC(=O)N(C3CCCCC3)[C@@H]2c2ccc(CO)cc2I)cc1
A) not fulfilled

Q) Threshold query (composite z-score >= 0.5) on COc1ccc(C(=O)Nc2cccc(CN3C(=O)[C@@]4(O[C@@H](CCn5cc(CCO)nn5)[C@H]([Si](C)(C)c5ccc(OC)cc5)[C@H]4C)c4ccccc43)c2)cc1
A) fulfilled

Q) Threshold query (composite z-score >= 0.5) on CO[C@H]1O[C@H](CO)[C@@H](OC(=O)Nc2ccc3c(c2)OCO3)[C@H](OC(=O)Nc2ccccc2)[C@H]1OC(=O)Nc1ccccc1
A) not fulfilled

Q) Threshold query (composite z-score >= 0.5) on COCCCNC(=O)[C@@]1(CCC(=O)OC(C)(C)C)N=C(c2ccc(OCCCO)cc2)O[C@H]1c1ccccc1CN=[N+]=[N-]
A) not fulfilled

* * *

Biological target: NADPH oxidase 4 (Homo sapiens) (UniProt Q9NPH5)
Sequence (Q9NPH5 whole entry, looked up): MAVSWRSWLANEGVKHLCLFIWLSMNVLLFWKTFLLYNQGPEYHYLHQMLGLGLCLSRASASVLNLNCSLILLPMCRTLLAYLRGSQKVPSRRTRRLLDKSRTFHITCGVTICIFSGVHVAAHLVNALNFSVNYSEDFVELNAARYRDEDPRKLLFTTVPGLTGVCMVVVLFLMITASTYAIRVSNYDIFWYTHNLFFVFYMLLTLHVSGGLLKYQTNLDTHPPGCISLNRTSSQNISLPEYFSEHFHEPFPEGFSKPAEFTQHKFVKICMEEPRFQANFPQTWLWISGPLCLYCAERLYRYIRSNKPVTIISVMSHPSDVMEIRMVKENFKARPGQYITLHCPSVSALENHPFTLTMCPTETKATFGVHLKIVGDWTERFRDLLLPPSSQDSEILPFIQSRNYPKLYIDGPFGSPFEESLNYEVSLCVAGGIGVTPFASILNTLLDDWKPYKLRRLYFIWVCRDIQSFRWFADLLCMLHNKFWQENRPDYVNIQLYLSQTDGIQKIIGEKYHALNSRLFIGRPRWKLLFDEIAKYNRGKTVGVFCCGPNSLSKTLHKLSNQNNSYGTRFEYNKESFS
Assay: NOX4-dependent H2O2 signal modulators, primary screen, NOX inhibitor project, cell-based, HEK293-NOX4, tetracycline-induced, Amplex Red fluorescence (AID 1160)
Conditions: 45 min, higher = more signal, called active from +8 up or from −8 down
Active and inactive are the calls of the source.
metric: z-score

Q) Look at this molecule and give its reported z-score. O=C1C2C=CC(C(O)c3ccc(-c4ccccc4)s3)N(n3cnnc3)C2C(=O)N1Cc1ccccc1 (stereo unspecified)
A) -0.149 (inactive)

Q) Look at this molecule and give its reported z-score. CN(C)CCCNC(=O)[C@@]1(Cc2ccccc2I)c2ccccc2C(=O)N(Cc2ccccc2C(F)(F)F)[C@H]1c1ccc(CO)cc1
A) -4.55 (inactive)

Q) Look at this molecule and give its reported z-score. CCCN1C(=O)[C@@]2(CCC(=O)OC(C)(C)C)N=C(c3ccc(OCCCO)cc3)O[C@H]2c2ccccc21
A) -0.665 (inactive)

Q) Look at this molecule and give its reported z-score. COCCOC(=O)N1C(=O)[C@@]2(c3cc(C#Cc4ccc(OC)cc4)ccc31)[C@H](C(=O)N1CCN(c3ncccn3)CC1)[C@H]1C(=O)O[C@H](c3ccccc3)[C@H](c3ccccc3)N1[C@@H]2c1ccc(O)cc1
A) 0.19 (inactive)

Q) Look at this molecule and give its reported z-score. CC(C)CNC(=O)[C@@H]1c2ccccc2C(=O)N(Cc2cc(C(F)(F)F)cc(C(F)(F)F)c2)[C@H]1c1ccc(CO)cc1
A) -0.815 (inactive)

Q) Look at this molecule and give its reported z-score. COC(=O)C(CC#Cc1ccc2c(c1)[C@]1(C(=O)N2)[C@H](C(=O)NC[C@H](O)c2ccccc2)[C@H]2C(=O)O[C@H](c3ccccc3)[C@H](c3ccccc3)N2[C@@H]1c1ccc(OCCO)cc1)C(=O)OC
A) 0.865 (inactive)

* * *

Experiment: splicing luciferase reporter signal modulators, primary screen, spliceosome inhibition project, cell-based, HEK293, splice +/- reporter (AID 1101);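 note: HEK293 cells carrying a splicing-competent luciferase reporter gene; test concentration not given here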
Settings: luminescence, 24 h, higher = more signal, called active from +8 up or from −8 down
Returns Y if the recorded z-score is greater than or equal to 0.6, and N otherwise.

Q) Threshold query (z-score >= 0.6) on O=C1O[C@@H](c2ccccc2)[C@@H](c2ccccc2)N2[C@@H](c3ccc(OCCO)cc3)[C@]3(C(=O)Nc4ccc(C#CC5=CCCCC5)cc43)[C@@H](C(=O)O)[C@H]12
A) Y

Q) Threshold query (z-score >= 0.6) on [N-]=[N+]=Nc1ccccc1[C@H]1OC(c2ccc(OCCCO)cc2)=N[C@@]1(CCS(=O)(=O)c1ccccc1)C(=O)O
A) N

Q) Threshold query (z-score >= 0.6) on CC1CC/C=C\[C@H]2OC34C=CCN(Cc5ccccc5)C(=O)[C@H]3N(CCCCCO)C(=O)[C@@H]4C2C(=O)O1 (some centres not stated)
A) N

Q) Threshold query (z-score >= 0.6) on CCC[C@@H]1C=C(C(=O)O)[C@H](c2ccc(C)cc2)N1S(=O)(=O)c1ccc(C)cc1
A) Y

Q) Threshold query (z-score >= 0.6) on Cc1cc(C)c(C(O)C2C=CC3C(=O)N(c4ccccc4)C(=O)C3N2Nc2ccc(C#N)cc2)c(C)c1 (configuration not stated)
A) Y

Q) Threshold query (z-score >= 0.6) on CCOC(=O)C[C@H]1[C@H](OC(=O)c2ccc(-c3ccccc3)cc2)[C@@H](NC(=O)c2ccc(-c3ccccc3)cc2)c2cc(OCCCO)ccc2N1C(=O)Cc1ccc(OC)cc1
A) N

Q) Threshold query (z-score >= 0.6) on C=C[C@@H](COC(C)=O)N(Cc1ccc([N+](=O)[O-])cc1)S(=O)(=O)c1ccc(Br)cc1
A) N

* * *

Assay: E. coli growth modulation, two-sided OD650, primary screen, E. coli filamentation project, strain DRC41, 24 h (AID 1093);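 note: MC1000 strain lacking acrAB efflux and sulA so SOS filamentation is blocked; test concentration not given here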
Conditions: OD650, 24 h, higher = more signal, called active from +8 up or from −8 down
metric: z-score
Just the number, please, no unit after it.

Q) Look at this compound and give its reported z-score. O=C(OCCF)C1=CCC(c2cccc(Cl)c2)O1 (centres undefined)
A) -0.0288

Q) Look at this compound and give its reported z-score. COC(=O)c1ccc(OC)c(/C=C\CC(OC(C)=O)c2ccccc2)c1 (centres undefined)
A) 0.759

Q) Look at this compound and give its reported z-score. CC(C)(C)N1CC=CC23O[C@@H]4/C=C\CCCOC(=O)C4[C@H]2C(=O)N(CCO)[C@@H]3C1=O (some centres undefined)
A) 1.54

Q) Look at this compound and give its reported z-score. COc1ccc([Si](C)(C)[C@H]2[C@H](CCn3cc([C@H](O)c4ccccc4)nn3)O[C@@]3(C(=O)N(Cc4cccc(N5CCC5=O)c4)c4ccccc43)[C@@H]2C)cc1
A) 1.41

Q) Look at this compound and give its reported z-score. CCCCC=C[C@@H](NC(=O)c1ccco1)c1ccccc1
A) -0.675

Q) Look at this compound and give its reported z-score. CC(C)C(=C=CC[C@H](O)c1cccc(OCCO)c1)C[C@H](O)COCc1ccccc1
A) 0.299

Q) Look at this compound and give its reported z-score. COCCOC(=O)N1C(=O)[C@@]2(c3cc(C#CCNC(N)=O)ccc31)[C@H](C(=O)N1CCc3cc(OC)c(OC)cc3C1)[C@H]1C(=O)O[C@H](c3ccccc3)[C@H](c3ccccc3)N1[C@@H]2c1ccc(OCCO)cc1
A) 0.692

Q) Look at this compound and give its reported z-score. CC(=CC1CCCCC1)[C@@H](NC(=O)c1ccc(C(F)(F)F)cc1)c1ccc(-c2ccccc2)cc1
A) -1.33

Q) Look at this compound and give its reported z-score. COc1ccc(CCNC(=O)[C@@H]2c3ccccc3C(=O)N(Cc3ccc(OC(F)(F)F)cc3)[C@H]2c2ccc(CO)cc2)cc1
A) -0.652

Q) Look at this compound and give its reported z-score. COC(=O)C[C@H]1O[C@]2(C(=O)N(Cc3ccccc3)c3ccc(NC(C)=O)cc32)[C@@H](C)[C@@H]1[Si](C)(C)c1ccc(OC)cc1
A) 0.0208

Q) Look at this compound and give its reported z-score. CN1C=C(C(=O)OCCS(C)(=O)=O)C(C(=O)OCCS(C)(=O)=O)=CC(CCCO)=CC1C1CC1 (centres undefined)
A) 0.731

Q) Look at this compound and give its reported z-score. Cc1ccc(S[C@]2(C(=O)NCc3ccccc3)CC(=O)N(Cc3ccccc3Cl)[C@@H]2c2ccc(CO)cc2I)cc1
A) -0.592

Q) Look at this compound and give its reported z-score. COc1ccc([Si](C)(C)[C@H]2[C@H](CCn3cc(CCO)nn3)O[C@@]3(C(=O)N(Cc4ccc(N5CCOC5=O)cc4)c4ccccc43)[C@@H]2C)cc1
A) 1.01

Q) Look at this compound and give its reported z-score. CCN(CC)c1ccc(N2CC=CC34O[C@@H]5/C=C\CCCOC(=O)C5[C@H]3C(=O)N(C(CO)C(C)C)[C@@H]4C2=O)cc1 (some centres undefined)
A) -0.309

Q) Look at this compound and give its reported z-score. CC(C)C[C@@H]1NC(=O)[C@H]2C[C@@H](C(=O)NCCCCCNC(=O)CS)[C@@H](c3cccc(OCCO)c3)N2C1=O
A) -0.187

Q) Look at this compound and give its reported z-score. CC(C)N1C(=O)C[C@@](C(=O)NCc2ccccc2)(c2ccc([N+](=O)[O-])cc2)[C@H]1c1ccc(CO)cc1
A) 0.796

Q) Look at this compound and give its reported z-score. Cc1c(NC(=O)CC#N)c(=O)n(-c2ccccc2)n1C
A) -0.325

Q) Look at this compound and give its reported z-score. COCCOC(=O)N1C(=O)[C@@]2(c3cc(C#Cc4ccc(OC)cc4)ccc31)[C@H](C(=O)N1CCN(c3ncccn3)CC1)[C@H]1C(=O)O[C@H](c3ccccc3)[C@H](c3ccccc3)N1[C@@H]2c1ccc(O)cc1
A) 0.313

Q) Look at this compound and give its reported z-score. N#Cc1ccc(NN2C(C(O)c3ccc([N+](=O)[O-])cc3)C=CC3C(=O)N(c4ccccc4)C(=O)C32)cc1 (centres undefined)
A) -1.75

Q) Look at this compound and give its reported z-score. CN1C(=O)C2C(C1=O)C1C=C(CCCO)C2C(c2cccs2)N1C (centres undefined)
A) 0.729

Q) Look at this compound and give its reported z-score. COc1ccc(NN2C(C(O)c3ccc(OC)c(OCc4ccccc4)c3)C=CC3C(=O)N(C4CCCCC4)C(=O)C32)cc1 (centres undefined)
A) 0.644

Q) Look at this compound and give its reported z-score. COc1ccc(C#Cc2ccc3c(c2)[C@]2(C(=O)N3)[C@H](c3ccc(O)cc3)N3[C@H](c4ccccc4)[C@H](c4ccccc4)OC(=O)[C@H]3[C@@H]2C(=O)N2CCCCCCC2)cc1
A) 0.484

Q) Look at this compound and give its reported z-score. O=C(CS)NCCCCCCNC(=O)[C@H]1C[C@H]2C(=O)NCC(=O)N2[C@H]1c1ccc(O)cc1
A) -0.449

Q) Look at this compound and give its reported z-score. O=C/C=C/c1ccc2c(c1)OCO2
A) -1.98

Q) Look at this compound and give its reported z-score. CCOC(=O)C[C@H]1[C@H](OC(=O)c2ccccc2-c2ccccc2)[C@@H](NC(=O)c2ccc3ccccc3c2)c2cc(OCCCO)ccc2N1C(=O)c1ccc2ccccc2n1
A) -0.263

Q) Look at this compound and give its reported z-score. COc1ccc([Si](C)(C)[C@H]2[C@H](CC(=O)N(CCO)Cc3ccccc3)O[C@@]3(C(=O)N(Cc4cccc(N5CCC5=O)c4)c4ccccc43)[C@@H]2C)cc1
A) 2.57

Q) Look at this compound and give its reported z-score. C[N+](C)(C)CCCCCCNC(=O)[C@H]1C[C@H]2C(=O)N3CCC[C@H]3C(=O)N2[C@H]1c1ccc(O)cc1
A) 0.89

Q) Look at this compound and give its reported z-score. O=C1O[C@H](c2ccccc2)[C@H](c2ccccc2)N2[C@H]1[C@@H](C(=O)Nc1nc3ccccc3s1)[C@]1(C(=O)Nc3ccccc31)[C@H]2c1ccc(O)cc1
A) 0.071

Q) Look at this compound and give its reported z-score. COc1ccc(C(=O)Nc2cccc(CN3C(=O)[C@@]4(O[C@@H](CCn5cc(CCO)nn5)[C@H]([Si](C)(C)c5ccc(OC)cc5)[C@H]4C)c4ccccc43)c2)cc1
A) -1.02
